- protocol text: in vitro
- condition summary: plasma, Plasma protein binding (PPB)
Let's look at some molecules and their measured fraction unbound.
The response must contain the number and no unit.

[
  {
    "smiles record": "COc1ccc(C(=O)N2CCOCC2)cc1S(=O)(=O)N(Cc1ccccc1)Cc1cnc(C(F)(F)F)nc1",
    "fraction unbound": 0.117
  }
]

Attention now shifts to the item below.
QUERY: Which fraction unbound value is on record for COc1ccc(C(=O)N2CCOCC2)cc1S(=O)(=O)N(Cc1ccc(F)cc1)Cc1ccc(C(F)(F)F)nc1 ?
RESULT: 0.041

---

- Test system: Leishmania infantum MHOM/MA(BE)/67/ITMAP263 intracellular amastigotes
- protocol text: microbe, parasite or virus in culture
- condition summary: Macrophage, in Mus musculus, read-out: L. Inf. pIC50, from L. infantum intracellular amastigote IC50 (converted)
Field: label. Allowed values: Met (IC50 < 30 µM) or Not met (IC50 >= 30 µM).

For orientation, consider the following solved cases.
[
  {
    "compound": "COc1ccc(Cl)cc1S(=O)(=O)N(Cc1ccccc1)CC(N)c1ccc(F)cc1 (stereo not drawn) [DNDI0003389932]",
    "qualitative label": "Met"
  },
  {
    "compound": "O=S(=O)(NCc1ccc(F)cc1)c1cccnc1OCc1ccccc1 [DNDI0003369120]",
    "qualitative label": "Met"
  },
  {
    "compound": "COc1ccc(OC)c(S(=O)(=O)N(Cc2ccc(F)cc2)Cc2nc(C)no2)c1 [DNDI0003368295]",
    "qualitative label": "Met"
  }
]

QUERY: Consider the compound COc1ncccc1S(=O)(=O)N(Cc1ccc(F)cc1)Cc1ccccn1 [DNDI0003370084] . Is its IC50 strictly less than 30 µM?
RESULT: Met

QUERY: Check if IC50 falls below 30 µM for COc1ccc(S(=O)(=O)N(Cc2ccccc2)Cc2ccccc2)cc1 [DNDI0003367309] .
RESULT: Not met

QUERY: Consider the compound COc1ccc(N2CCN(C)CC2)cc1S(=O)(=O)N(Cc1ccc(F)cc1)Cc1ccc(F)cc1 [DNDI0003389645] . Is its IC50 strictly less than 30 µM?
RESULT: Met

QUERY: Given the entry COc1ccc(OC)c(S(=O)(=O)N2CCC(c3ccccc3)CC2)c1 [DNDI0003370422] , would its reported IC50 be below 30 µM?
RESULT: Not met

QUERY: Dear reviewer, please state whether CC(=O)Nc1ccc(S(=O)(=O)NCc2ccccc2)cc1 [DNDI0003366092] has IC50 strictly beneath 30 µM.
RESULT: Not met

QUERY: For this compound, is IC50 lower than 30 µM? COc1ccc(Cl)cc1S(=O)(=O)N(Cc1ccccc1)C(CO)CO [DNDI0003389933]
RESULT: Not met

QUERY: Does the reported IC50 of the following compound sit strictly below 30 µM? O=C(c1ccc(OCC2CCCO2)c(S(=O)(=O)NCc2ccccc2)c1)N1CCOCC1 (stereo not drawn) [DNDI0003407877]
RESULT: Not met

QUERY: Does COc1ccc(C(=O)N2CCOCC2)cc1S(=O)(=O)N(C)Cc1ccc(F)cc1 [DNDI0003389126] have IC50 strictly under 30 µM?
RESULT: Not met

QUERY: Please state whether IC50 is below 30 µM for COc1ccc(Cl)cc1S(=O)(=O)N(Cc1ccccc1)OC [DNDI0003364476]
RESULT: Met

QUERY: Does the reported IC50 of the following compound sit strictly below 30 µM? COc1ncccc1S(=O)(=O)N(Cc1ccc(F)cc1)Cc1ccc(F)cc1 [DNDI0003371169]
RESULT: Met

QUERY: Given CCN(Cc1ccccc1)S(=O)(=O)c1ccccc1Br [DNDI0003365405] , is recorded IC50 strictly lower than 30 µM?
RESULT: Not met

QUERY: Identify whether the compound O=c1[nH]cccc1S(=O)(=O)N(Cc1ccc(F)cc1)Cc1ccc(F)cc1 [DNDI0003371165] records IC50 below 30 µM.
RESULT: Not met

QUERY: I wonder whether COc1ccc(OC)c(S(=O)(=O)N(Cc2ccc(F)cc2)Cc2ccc(C#N)cc2)c1 [DNDI0003388088] has IC50 below 30 µM. Can you tell?
RESULT: Met

QUERY: Is IC50 of CN(C)CCN(Cc1ccccc1)S(=O)(=O)c1ccc(NC(=O)CCCO)cc1 [DNDI0003368293] strictly below 30 µM?
RESULT: Not met

---

- protocol text: in vitro
- condition summary: mouse, microsomes, pH 7.4, Microsome Clint,u Mouse, Table 2; intrinsic in vitro clearance, liver microsomes
The compounds listed here are annotated with their log10 of microsomal CLint at 0.5 h, 0.5 µM.
Hi team, quick reminder: these entries are log10 of microsomal CLint at 0.5 h, 0.5 µM (µL/min/mg).

[
  {
    "smiles record": "COc1ccc(C(=O)N2CCOCC2)cc1S(=O)(=O)N(Cc1ccc(F)cc1)Cc1ccc(C(F)(F)F)nc1",
    "measured value": 2.73
  }
]

QUERY: For the compound COc1ccc(OC)c(S(=O)(=O)N(Cc2ccc(F)cc2)Cc2cnc(OC)nc2OC)c1 , what log10 of microsomal CLint at 0.5 h, 0.5 µM is on record?
RESULT: 3.50

QUERY: Item COc1ccc(C(=O)N2CCOCC2)cc1S(=O)(=O)N(Cc1ccc(C(F)(F)F)nc1)CC(C)(C)C has what recorded log10 of microsomal CLint at 0.5 h, 0.5 µM?
RESULT: 2.58

---

- protocol text: in vitro
- condition summary: human
readout: CC50 at 3 days

Reference set, count: 3
[
  {
    "compound": "COCCN(Cc1ccccc1)S(=O)(=O)c1ccccc1OC(F)(F)F [DNDI0003392130]",
    "CC50 at 3 days": "> 64 µM"
  },
  {
    "compound": "CCN(Cc1ccccc1)S(=O)(=O)c1cc(OC)ccc1OC [DNDI0003365407]",
    "CC50 at 3 days": "> 64 µM"
  },
  {
    "compound": "COc1cc2c(cc1S(=O)(=O)N(Cc1ccccc1)Cc1ccccc1)S(=O)(=O)NCN2 [DNDI0003425513]",
    "CC50 at 3 days": "22.9 µM"
  }
]

Shift focus to the following entry.
QUERY: Fill blank: measured CC50 at 3 days of the compound Cn1cccc(S(=O)(=O)N(Cc2ccc(F)cc2)Cc2ccc(F)cc2)c1=O [DNDI0003371168] is ____.
RESULT: > 64 µM

---

Entries annotated with measured log10 microsomal CLint at 0.5 μM
- protocol text: in vitro
- condition summary: human, microsomes, pH 7.4, HLM CLint (uL/min/mg), human liver microsomes
// units: µL/min/mg (pre-log); metric: microsomal CLint at 0.5 μM; scale: log10

[
  {
    "compound": "COc1ccc(C(=O)NCCO)cc1S(=O)(=O)N(Cc1ccc(F)cc1)Cc1ccc(F)cc1",
    "log10 microsomal CLint at 0.5 μM": 2.12
  },
  {
    "compound": "COc1ccc(Cl)cc1S(=O)(=O)N(Cc1ccccc1)C(CO)c1ccc(F)cc1 (stereo not drawn)",
    "log10 microsomal CLint at 0.5 μM": 1.26
  },
  {
    "compound": "COc1ccc(C(=O)N2CCOCC2)cc1S(=O)(=O)N(C)Cc1ccc(F)cc1",
    "log10 microsomal CLint at 0.5 μM": 1.85
  }
]

QUERY: Field request: log10 microsomal CLint at 0.5 μM | item: COc1ccc(C(=O)N2CCOCC2)cc1S(=O)(=O)N(Cc1ccc(F)cc1)Cc1ccc(F)cc1
RESULT: 3.00

QUERY: // lookup log10 microsomal CLint at 0.5 μM for O=S(=O)(c1cc(N2CCOCC2)ccc1OC(F)F)N(Cc1ccc(F)cc1)Cc1ccc(F)cc1
RESULT: 2.18

---

- protocol text: in vitro
- condition summary: PAMPA
readout: Papp (×10⁻⁶ cm/s)
Note: unit ×10⁻⁶ cm/s is implicit; provide only the numeric part.

Past entries and their recorded results:
[
  {
    "molecule": "COC(=O)[C@H](CO)NS(=O)(=O)c1cc(Cl)ccc1OC",
    "measured value": 9.07
  },
  {
    "molecule": "COc1ccc(C#N)cc1S(=O)(=O)N(Cc1ccc(F)cc1)Cc1oc(C)nc1C",
    "measured value": 14.8
  },
  {
    "molecule": "O=S(=O)(NCc1ccc(F)cc1)c1cccnc1NCCN1CCOCC1",
    "measured value": 1.85
  }
]

QUERY: Given the entry COc1ccc(OC)c(S(=O)(=O)N(Cc2ccc(F)cc2)Cc2nc(C)no2)c1 , report its measured Papp.
RESULT: 8.92

QUERY: Would you mind telling me what Papp value was observed for COc1ncccc1S(=O)(=O)N(Cc1ccc(F)cc1)Cc1ccccn1 ?
RESULT: 27.4

QUERY: Papp for Cn1cccc(S(=O)(=O)N(Cc2ccc(F)cc2)Cc2ccc(F)cc2)c1=O ?
RESULT: 18.3

QUERY: Consider the molecule COc1ccc(S(C)(=O)=O)cc1S(=O)(=O)N(Cc1ccc(F)cc1)Cc1ccc(F)cc1 and give its measured Papp.
RESULT: 2.57

QUERY: Quick one: Papp for COCCN(Cc1ccc(F)cc1)S(=O)(=O)c1cc(C#N)ccc1OC ?
RESULT: 15.3

QUERY: Data request, read-out Papp, for CCOCCOc1ncccc1S(=O)(=O)NCc1ccc(F)cc1
RESULT: 23.8

QUERY: Which Papp is listed for COc1ccc(S(=O)(=O)N(Cc2ccccc2)Cc2ccccc2)cc1 ?
RESULT: 1

QUERY: I have this molecule here, CNC(=O)c1ccc(OC)c(S(=O)(=O)N(Cc2ccccc2)Cc2ccccc2)c1 , and I need its recorded Papp.
RESULT: 10.4

QUERY: Suppose we examine the molecule O=S1(=O)NC(Cc2ccccc2)COc2ccc(F)cc21 (stereo not shown) ; what Papp value has been reported?
RESULT: 26.2

QUERY: Reported Papp for COc1ccc(OC)c(S(=O)(=O)N(Cc2ncccn2)Cc2ncccn2)c1 : what is it?
RESULT: 25.1

The origin of these recorded values is paper PMC8126888.
